# maps each entry to its log10 Ki
# target_or_test_system: UniProtKB O60502
# Sequence (O60502 whole entry): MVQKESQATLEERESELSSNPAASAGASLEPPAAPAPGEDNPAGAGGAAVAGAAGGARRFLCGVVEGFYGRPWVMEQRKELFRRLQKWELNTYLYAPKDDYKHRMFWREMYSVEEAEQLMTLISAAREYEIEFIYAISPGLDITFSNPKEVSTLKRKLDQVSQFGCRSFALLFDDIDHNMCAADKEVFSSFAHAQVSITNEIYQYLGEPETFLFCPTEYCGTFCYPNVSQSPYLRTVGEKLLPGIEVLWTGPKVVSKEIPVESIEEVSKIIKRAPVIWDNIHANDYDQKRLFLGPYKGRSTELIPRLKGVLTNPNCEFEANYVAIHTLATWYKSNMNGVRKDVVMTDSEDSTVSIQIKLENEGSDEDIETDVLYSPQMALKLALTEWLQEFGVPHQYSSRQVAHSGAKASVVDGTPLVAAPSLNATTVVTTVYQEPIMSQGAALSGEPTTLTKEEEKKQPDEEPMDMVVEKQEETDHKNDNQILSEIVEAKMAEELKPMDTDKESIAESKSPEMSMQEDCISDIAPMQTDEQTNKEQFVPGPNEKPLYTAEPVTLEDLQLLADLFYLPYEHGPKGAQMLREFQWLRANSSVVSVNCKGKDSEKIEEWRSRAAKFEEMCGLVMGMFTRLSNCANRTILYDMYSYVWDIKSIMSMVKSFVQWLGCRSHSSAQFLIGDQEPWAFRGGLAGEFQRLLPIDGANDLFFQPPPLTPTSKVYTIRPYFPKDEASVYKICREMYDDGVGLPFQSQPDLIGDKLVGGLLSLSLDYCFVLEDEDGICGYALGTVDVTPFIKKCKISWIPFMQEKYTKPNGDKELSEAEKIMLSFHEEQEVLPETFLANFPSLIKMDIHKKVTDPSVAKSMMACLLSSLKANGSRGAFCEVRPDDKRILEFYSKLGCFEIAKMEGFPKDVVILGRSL
# protocol_notes: Competitive inhibition of N-terminal His-tagged human OGA using pNP-GlcNAc as chromogenic substrate assessed as inhibition constant by measuring liberation of nitrophenol preincubated with enzyme followed by substrate addition by Dixon plot analysis
quantity: log10 Ki (log10 of the value in nM)

[[record]]
cpd_smiles = "CC(=O)N[C@H]1/C(=N/NC(=O)Nc2ccc(C(F)(F)F)cc2)O[C@H](CO)[C@@H](O)[C@@H]1O"
measured = 2.22

[[record]]
cpd_smiles = "CC(=O)N[C@H]1/C(=N/NC(=S)Nc2ccccc2)O[C@H](CO)[C@@H](O)[C@@H]1O"
measured = 4.43

[[record]]
cpd_smiles = "CC(=O)N[C@H]1/C(=N/NC(=O)Nc2cccc3ccccc23)O[C@H](CO)[C@@H](O)[C@@H]1O"
measured = 2.70

[[record]]
cpd_smiles = "CC(=O)N[C@H]1/C(=N/NC(=O)Nc2ccccc2)O[C@H](CO)[C@@H](O)[C@@H]1O"
measured = 2.28

[[record]]
cpd_smiles = "CC(=O)N[C@H]1/C(=N/NC(=O)Nc2ccc(C)cc2)O[C@H](CO)[C@@H](O)[C@@H]1O"
measured = 2.19

[[record]]
cpd_smiles = "COc1ccc(NC(=O)N/N=C2\\O[C@H](CO)[C@@H](O)[C@H](O)[C@H]2NC(C)=O)cc1"
measured = 2.43


Data provenance is ChEMBL document CHEMBL4840309.
